- Target system: T1, human vascular endothelial growth factor receptor-2 Fc chimera (KDR-Fc) (human, UniProt P35968 20-764)
- T1 construct: range 1-764; also called human VEGFR-2; VEGF-R2-Fc; not shown: human IgG1 Fc
- T1 sequence (P35968 20-764 limits assumed, change not shown, form in doubt): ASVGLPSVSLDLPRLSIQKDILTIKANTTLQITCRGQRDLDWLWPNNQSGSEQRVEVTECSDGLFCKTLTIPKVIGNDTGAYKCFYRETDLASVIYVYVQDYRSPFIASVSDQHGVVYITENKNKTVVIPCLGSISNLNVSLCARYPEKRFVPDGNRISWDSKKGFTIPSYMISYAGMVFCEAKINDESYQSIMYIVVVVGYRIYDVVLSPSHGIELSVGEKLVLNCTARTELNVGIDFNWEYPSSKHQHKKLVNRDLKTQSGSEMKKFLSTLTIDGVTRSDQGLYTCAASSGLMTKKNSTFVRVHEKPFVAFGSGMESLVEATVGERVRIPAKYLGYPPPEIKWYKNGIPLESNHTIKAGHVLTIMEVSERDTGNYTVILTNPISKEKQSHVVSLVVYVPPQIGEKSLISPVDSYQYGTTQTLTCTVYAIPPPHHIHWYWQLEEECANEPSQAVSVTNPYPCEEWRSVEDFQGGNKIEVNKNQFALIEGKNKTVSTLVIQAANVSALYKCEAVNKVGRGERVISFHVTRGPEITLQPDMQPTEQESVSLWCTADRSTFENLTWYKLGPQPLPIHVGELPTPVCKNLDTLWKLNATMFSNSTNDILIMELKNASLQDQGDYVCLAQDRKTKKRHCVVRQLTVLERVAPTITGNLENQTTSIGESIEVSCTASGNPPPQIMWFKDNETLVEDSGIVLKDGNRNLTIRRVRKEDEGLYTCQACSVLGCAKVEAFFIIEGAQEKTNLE
- Test description: radioactive equilibrium binding, 1 nM KDR-Fc
Assay metric: Binding to 1 nM KDR, %
# answer = value followed by unit

Solved cases (2 shown):
[
  {
    "Binder": "3′B12 PR4 (designed binder, Del 1-8) EVVAATPTSLLISWRHPHFPTRYYRITYGETGGNSPVQEFTVPLQPPTATISGLKPGVDYTITGYAVTVAHENRELLTPISINYRT",
    "Assay metric": "Binding to 1 nM KDR, %",
    "Val": "28%"
  },
  {
    "Binder": "2′Del E5 PR4 (designed binder, Del 1-8) EVVAATPTSLLISWRHPHFPTRYYRITYGETGGNSPVQEFTVPLQPPTATISGLKPGVDYTITGYAVTEGLNDHELIIPISINYRT",
    "Assay metric": "Binding to 1 nM KDR, %",
    "Val": "19%"
  }
]

-- ask Look up Binding to 1 nM KDR, %: 3′B11 PR4 (designed binder, Del 1-8) EVVAATPTSLLISWRHPHFPTRYYRITYGETGGNSPVQEFTVPLQPPTATISGLKPGVDYTITGYAVTETWNDHEIRTPISINYRT
-- reply 23%

-- ask Continue with K11 (designed binder, Del 1-8) EVVAATPTSLLISWRHPHFPTRYYRITYGETGGNSPVQEFTVPLQPPTATISGLKPGVDYTITGYAVTQAPNDRVLYTPISINYRT
-- reply 24%

-- ask What about this binder? 3′F6 PR4 (designed binder, Del 1-8) EVVAATPTSLLISWRHPHFPTRYYRITYGETGGNSPVQEFTVPLQPPTATISGLKPGVDYTITGYAVTIEQSGLQLMTPISINYRT
-- reply 24%

-- ask Field entry: 3′D8 PR4 (designed binder, Del 1-8) EVVAATPTSLLISWRHPHFPTRYYRITYGETGGNSPVQEFTVPLQPPTATISGLKPGVDYTITGYAVTAGPNDHQLFTPISINYRT
-- reply 27%

-- ask Can you check 3′B8 PR4 (designed binder, Del 1-8) EVVAATPTSLLISWRHPHFPTRYYRITYGETGGNSPVQEFTVPLQPPTATISGLKPGVDYTITGYAVTLGYHDHALFTPISINYRT next?
-- reply 14%

-- ask Param item: 4′G12 PR4 (designed binder, Del 1-8) EVVAATPTSLLISWRHPHFPTRYYRITYGETGGNSPVQEFTVPLQPPTATISGLKPGVDYTITGYAVTVAWNDHEIYTPISINYRT
-- reply 21%

-- ask Thanks! And 1′DelH10 PR4 (designed binder, Del 1-8) EVVAATPTSLLISWRHPHFPTRYYRITYGETGGNSPVQEFTVPLQPPTATISGLKPGVDYTITGYAVTFAQNDHELLTPISINYRT ?
-- reply 17%
